Data provenance is FireProtDB (doi:10.1021/bi00093a001).

B1: Subtilisin-chymotrypsin inhibitor-2A, P01053 (parent)
chain: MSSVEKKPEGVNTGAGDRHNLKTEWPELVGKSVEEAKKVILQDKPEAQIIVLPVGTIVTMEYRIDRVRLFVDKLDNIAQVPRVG

variants of: B1; details: Hordeum vulgare; pH 3.5; 25 °C; Thermal; DSC; MES 450 mM; reversible: yes; structure 2CI2; whole UniProt chain shown
Rule: ddG of mutation (higher = less stable) of 4 kcal/mol or more gives rule met; anything lower gives rule not met.

| VAR | QUALITATIVE LABEL |
| --- | --- |
| I49V | rule not met |
| I77A | rule met |
| I49A I77V | rule met |
| L69A | rule not met |
